- study.target: UniProt P00533
- Sequence (P00533 25-1210): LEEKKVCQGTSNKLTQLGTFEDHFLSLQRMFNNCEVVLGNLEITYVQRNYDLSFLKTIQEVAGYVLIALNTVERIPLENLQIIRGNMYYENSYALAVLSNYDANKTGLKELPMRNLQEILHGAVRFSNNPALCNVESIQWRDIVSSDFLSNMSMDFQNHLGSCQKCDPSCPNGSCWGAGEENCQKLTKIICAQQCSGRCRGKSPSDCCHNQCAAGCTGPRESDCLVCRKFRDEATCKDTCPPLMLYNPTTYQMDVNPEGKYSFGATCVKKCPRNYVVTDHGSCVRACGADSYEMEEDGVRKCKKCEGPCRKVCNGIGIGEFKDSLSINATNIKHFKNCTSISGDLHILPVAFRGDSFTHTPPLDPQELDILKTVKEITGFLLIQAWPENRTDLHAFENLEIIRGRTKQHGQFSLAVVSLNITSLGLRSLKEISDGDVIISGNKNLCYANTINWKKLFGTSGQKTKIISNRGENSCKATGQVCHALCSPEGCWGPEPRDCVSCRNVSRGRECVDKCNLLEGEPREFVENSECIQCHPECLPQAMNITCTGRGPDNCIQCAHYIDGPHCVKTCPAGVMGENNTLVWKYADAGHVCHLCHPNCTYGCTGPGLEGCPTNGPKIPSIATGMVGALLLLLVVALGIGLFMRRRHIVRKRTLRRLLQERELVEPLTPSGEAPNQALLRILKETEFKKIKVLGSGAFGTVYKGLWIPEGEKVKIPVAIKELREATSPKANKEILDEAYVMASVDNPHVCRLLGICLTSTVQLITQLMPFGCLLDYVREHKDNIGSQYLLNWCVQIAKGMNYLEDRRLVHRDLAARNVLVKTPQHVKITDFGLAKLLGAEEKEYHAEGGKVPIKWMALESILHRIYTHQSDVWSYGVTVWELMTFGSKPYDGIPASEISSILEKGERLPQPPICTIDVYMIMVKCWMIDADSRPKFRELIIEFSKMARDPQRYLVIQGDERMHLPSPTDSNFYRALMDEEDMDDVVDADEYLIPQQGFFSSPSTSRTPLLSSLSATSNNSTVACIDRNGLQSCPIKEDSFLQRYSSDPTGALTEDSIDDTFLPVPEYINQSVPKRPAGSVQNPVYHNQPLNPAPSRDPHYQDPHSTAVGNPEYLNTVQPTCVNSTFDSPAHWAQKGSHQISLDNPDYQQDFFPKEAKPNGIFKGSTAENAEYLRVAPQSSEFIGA
- assay.remarks: EGFR kinase inhibition assay (ELISA kit)
- condition.parameters: MCF7
property.name: Activity % (%)

O=C(Cn1cnc2cc(Cl)ccc2c1=O)Nc1ccccc1Cl [8b]
18.736
O=C(Cn1cnc2cc(Cl)ccc2c1=O)Nc1ccccc1 [8a]
20.242
O=C(Cn1cnc2cc([N+](=O)[O-])ccc2c1=O)Nc1ccccc1Cl [9b]
25.292
O=C(Cn1cnc2cc([N+](=O)[O-])ccc2c1=O)Nc1ccccc1 [9a]
19.563

----------
Readings of viability at 6.25 µg/mL for the listed molecules
- Tested on: HepG-2
- assay.remarks: MTT anti-proliferative assay, HepG-2
- Format: cell-based, human
- condition.parameters: Homo sapiens, HepG2; HepG-2, 6.25 ug/ml
Provide only the numeric value, understood in %.

Use these answered entries as a reference point.
O=C(Cn1cnc2cc(Cl)ccc2c1=O)Nc1ccccc1Cl
8.39
O=C(Cn1cnc2cc([N+](=O)[O-])ccc2c1=O)Nc1ccc(F)c(Cl)c1
16.3
O=C(Cn1cnc2cc(Cl)ccc2c1=O)Nc1ccccc1
7.88
O=C(Cn1cnc2cc([N+](=O)[O-])ccc2c1=O)Nc1ccc(Cl)cc1
11.7
O=C(Cn1cnc2cc([N+](=O)[O-])ccc2c1=O)Nc1ccccc1
6.96
O=C(Cn1cnc2cc(Cl)ccc2c1=O)Nc1ccc(Cl)cc1
11

Per the records, this molecule ( O=C(Cn1cnc2cc(Cl)ccc2c1=O)Nc1ccc(F)c(Cl)c1 ) has viability at 6.25 µg/mL equal to 11.9

Per the record, O=C(Cn1cnc2cc([N+](=O)[O-])ccc2c1=O)Nc1ccccc1Cl has viability at 6.25 µg/mL of 7.8
